B1: KCNK9 (parent)
chain: CFITLTTIGFGDYVALQTKGALQK

variants of: B1; assay: protein stability index of a GFP-peptide fusion (GPS, HEK-293T) (PSI 1-6); higher = more stable; conditions: c terminus: a fixed tail appended;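 further: lentivirally expressed fusions sorted by FACS into six bins by GFP to DsRed ratio, PSI derived from sequencing read proportions per bin multiplied by bin number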
parameter: protein stability index
Enter the number alone.

Before answering, review these 8 worked examples.
1. CFITLTTSGFGDYVALQTKGALQK [I8S] = 2.95
2. CFITLTTIGFGDYVALQTKGALDK [Q23D] = 2.98
3. CFITLTTIGFGMYVALQTKGALQK [D12M] = 4.64
4. CFITLTTMGFGDYVALQTKGALQK [I8M] = 2.03
5. CFITLTTIGFGDYVALQTKAALQK [G20A] = 3.49
6. CFITLTTIGPGDYVALQTKGALQK [F10P] = 2.78
7. KFITLTTIGFGDYVALQTKGALQK [C1K] = 2.05
8. CFITLTTIGFGDYVALQWKGALQK [T18W] = 3.1

Now for the variant whose protein stability index we want.
Name the recorded protein stability index for CFITLTTIGFGDYVAAQTKGALQK [L16A] .
3.26
